Reference for the values: patent US12465607B2

Tested on: AMO-1
Assay: Myeloma cell line viability, CCK-8, 24 hr
Assay type: cell-based
Conditions: Homo sapiens, AMO1; AMO-1, 24 hr treatment
measuredMetric: IC50 (µM)
Answer with a number only, understood to be in µM.

Example entries and their recorded answers appear below.
CCc1cc2c(cc1N1CCC(N3CCOCC3)CC1)C(C)(C)c1[nH]c3cc(C#N)ccc3c1C2=O: 13.3
Cc1cc(Nc2ncc(Cl)c(Nc3ccccc3S(=O)(=O)C(C)C)n2)c(OC(C)C)cc1C1CCNCC1: 2.09

[Q] Respond only with IC50 recorded for `C[C@@H](Oc1cc(-c2cnn(C3CCNCC3)c2)cnc1N)c1c(Cl)ccc(F)c1Cl`
[A] 3.92
